Value source: patent US20240415914A1

# Method Notes: Stability of cannabinoid and Vitamin E components of Beverage 1 (AB White) stored at 8° C. and 21-25° C., LCMSMS over 570 days
# Assay type: physicochemical
# Experimental Conditions: beverage stored at 21-25° C., day 23
Property Label: Stability in AB White, 21-25° C. (content by LCMSMS)
Note to self: number, then unit, no commentary.

Sample records with Stability in AB White, 21-25° C. (content by LCMSMS):
Could you tell me which Stability in AB White, 21-25° C. (content by LCMSMS) is on file for CCCCCc1cc(O)c2c(c1)OC(C)(CCC=C(C)C)C=C2 (stereo not drawn) ? 0.316 µg/mL

# lookup: Stability in AB White, 21-25° C. (content by LCMSMS) of CCCCCc1cc(O)c2c(c1)OC(C)(C)c1ccc(C)cc1-2 2.68 µg/mL

Please go through the list and note Stability in AB White, 21-25° C. (content by LCMSMS) for each compound.
1. C=C(C)[C@@H]1CCC(C)=C[C@H]1c1c(O)cc(CCC)cc1O
2. CCCCCc1cc2c(c(O)c1C(=O)O)[C@@H]1C=C(C)CC[C@H]1C(C)(C)O2 [D9 THCA, delta-9-tetrahydrocannabinolic acid]
3. CCCCCc1cc(O)c2c(c1)OC(C)(C)[C@@H]1CCC(C)=C[C@@H]21 [D9 THC, delta-9-tetrahydrocannabinol, reference compound]
4. CCCc1cc(O)c2c(c1)OC(C)(C)[C@@H]1CCC(C)=C[C@@H]21 [THCV, delta-9-tetrahydrocannabivarin]
5. C=C(C)[C@@H]1CCC(C)=C[C@H]1c1c(O)cc(CCCCC)c(C(=O)O)c1O
6. CCCCCc1cc(O)c(C/C=C(\C)CCC=C(C)C)c(O)c1

["0.148 µg/mL", "0.924 µg/mL", "12.0 µg/mL", "3.57 µg/mL", "1.73 µg/mL", "4.85 µg/mL"]

Which value of Stability in AB White, 21-25° C. (content by LCMSMS) has been reported for CCCCCc1cc(O)c2c(c1)OC1(C)CCC3C1C2C3(C)C (stereo not drawn) in the records? 0.530 µg/mL
